B1: Intersectin-1, residues 1156 to 1213; numbered along this chain, Q15811 (parent)
chain: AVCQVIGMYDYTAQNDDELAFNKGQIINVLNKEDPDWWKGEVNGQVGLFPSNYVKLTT

# Variants of: B1
# test-protocol: abundance fitness (aPCA) (normalised: wild type 0, dead -1); higher = more abundant; growth selection in yeast, the domain comes from the species named
# test-parameters: Homo sapiens
Classify as follows. Reported abundance fitness greater than or equal to -0.4: condition met. Reported abundance fitness below: condition not met.

Reference set (5 entries):
S51G ... condition not met
E18I ... condition not met
D17L ... condition met
N52G ... condition met
D10G ... condition not met

Does E18C have a reported abundance fitness of at least -0.4?
condition met

Can G40V be said to have abundance fitness at or above -0.4?
condition not met

Would you say S51H shows abundance fitness at minimum -0.4?
condition not met

Please check the record K55F and state if its abundance fitness is at or above -0.4.
condition not met

Threshold query (abundance fitness >= -0.4) on N31E
condition met

Check this variant for abundance fitness at or above -0.4: V42A
condition met

# check: abundance fitness of G7F is greater than or equal to -0.4
condition not met

hey, is abundance fitness for this one >= -0.4? N28F
condition met

Record V2L ; criterion: abundance fitness no lower than -0.4. Met?
condition met

Would you say T58I shows abundance fitness at minimum -0.4?
condition not met

Reported abundance fitness reaches at least -0.4 for V2Q ?
condition not met

// inclusive: abundance fitness at least -0.4? input: E18G
condition met

Confirm if abundance fitness reported for the variant N28T is -0.4 or above.
condition met

Hello, I need to know if A13Q has measured abundance fitness not below -0.4. Thanks!
condition not met

# bool: abundance fitness of K23F >= -0.4
condition not met

Determine whether measured abundance fitness meets or exceeds -0.4 for K23M
condition not met

Identify whether the reported abundance fitness of the following variant is -0.4 or greater: Y9A
condition met

hey, is abundance fitness for this one >= -0.4? L56V
condition met

In plain terms: is recorded abundance fitness at least -0.4 for D16H ?
condition not met

Confirm if abundance fitness reported for the variant P50T is -0.4 or above.
condition not met

Could you verify whether the entry I27Q shows abundance fitness of no less than -0.4?
condition not met

Record V2M ; criterion: abundance fitness no lower than -0.4. Met?
condition met

Test whether the variant E18P records abundance fitness of -0.4 or higher.
condition not met

Does abundance fitness meet or surpass -0.4 for V42R ?
condition met

Would you say A20R shows abundance fitness at minimum -0.4?
condition met

Determine whether this variant has abundance fitness no lower than -0.4: S51R
condition met

Determine whether this variant has abundance fitness no lower than -0.4: V54M
condition not met

Check this variant for abundance fitness at or above -0.4: I27F
condition not met

# bool: abundance fitness of N28Y >= -0.4
condition met
